# Tested on: primary breast tumor epithelial cells isolated from breast cancer tissues (HMFL-XN1, HMFL-XN3, HMFL-XN4, HMFL-XN6, HMFL-XN8)
# assay.text: Optimization of primary breast epithelial cell culture medium: cell count after culture with medium additives
# Format: cell-based, human
# Set-up: key: +: compared with the basis medium, the medium added with the additive(s) can promote the proliferation of primary breast tumor epithelial cells isolated from at least three cases of breast cancer tissues; −: the medium added with the additive(s) has the effect of inhibiting proliferation of primary breast tumor epithelial cells isolated from at least two cases of breast cancer tissues; ○: the medium added with this additive(s) has no significant effect on the proliferation of primary breast tumor epithelial cells isolated from at least three cases of breast cancer tissues
# test.conditions: additive at the concentration given in Table 1 added to basis medium; cell count after 10 days of culture, compared with basis medium; five breast cancer samples
# Experimental: Matrigel (registered trademark) (manufactured by BD Biosciences) was diluted at 1:100 in serum-free DMEM/F12 medium to prepare an extracellular matrix dilution, which was added to a 48-well culture plate with 200 μl/well to completely cover the bottom of the wells of the culture plate. The resultant was let stand for 1 hour in a 37° C. incubator. After 1 hour, the extracellular matrix dilution was removed to provide a Matrigel-coated plate. First, a basis medium was prepared. […]

{"molecule": "R-spondin1: R-spondin family protein, medium additive (protein, UniProt Q2MKA7 21-263, looked up) R-spondin-1: SRGIKGKRQRRISAEGSQACAKGCELCSEVNGCLKCSPKLFILLERNDIRQVGVCLPSCPPGYFDARNPDMNKCIKCKIEHCEACFSHNFCTKCKEGLYLHKGRCYPACPEGSSAANGTMECSSPAQCEMSEWSPWGPCSKKQQLCGFRRGSEERTRRVLHAPVGDHAACSDTKETRRCTVRRVPCPEGQKRRKGGQGRRENANRNLARKESKEAGAGSRRRKGQQQQQQQGTVGPLTSAGPA", "Degree of cell": "○"}
{"molecule": "Amphiregulin: human amphiregulin (R&D Systems), medium additive (protein, UniProt P15514 101-187, looked up) Amphiregulin: SVRVEQVVKPPQNKTESENTSDKPKRKKKGGKNGKNRRNRKKKNPCNAEFQNFCIHGECKYIEHLEAVTCKCQQEYFGERCGEKSMK", "Degree of cell": "+"}
